Every entry's value here was drawn from patent US20100222322A1.

Overview of recorded IC50 for various compounds
target: mutant HIV reverse transcriptase with the K103N mutation (Human immunodeficiency virus type 1 group M subtype B, UniProt P04585, K690N); construct: mutations that occur in the reverse transcriptase segment of the pol gene; made in house; test: Analogous RT inhibition assay, K103N mutant; type: biochemical; conditions: RT with K103N mutation; tested up to 20 micromolar; read-out: IC50, K103N mutant assay

compound	IC50
O=C(NCc1nccs1)c1[nH]c2ccc(Br)cc2c1S(=O)(=O)N1CCCC1 [Example 47]	< 1 µM
NC(=O)c1[nH]c2ccc(Br)cc2c1S(=O)(=O)NCC1CCCO1 (stereo not drawn) [Example 18]	> 20 µM
N#Cc1ccc2[nH]c(C(N)=O)c(S(=O)(=O)N3CCCC3)c2c1 [Example 68]	1 to 20 µM
NC(=O)c1[nH]c2ccc(Br)cc2c1S(=O)(=O)N1CCC[C@H]1C(F)(F)F [Example 19]	> 20 µM
NC(=O)c1[nH]c2ccc(Br)cc2c1S(=O)(=O)NC1CCCC1 [Example 17]	> 20 µM
COC[C@@H]1CCCN1S(=O)(=O)c1c(C(N)=O)[nH]c2ccc(Br)cc12 [Example 15]	1 to 20 µM
NC(=O)c1[nH]c2ccc(Br)cc2c1S(=O)(=O)N1CCCCC1 [Example 13]	1 to 20 µM
NC(=O)c1[nH]c2ccc(Br)cc2c1S(=O)(=O)NC1CCCCC1 [Example 16]	> 20 µM
NC(=O)c1[nH]c2ccc(Br)cc2c1S(=O)(=O)N1CCCC1 [Example 1]	1 to 20 µM
